Measured percent infected values are reported for all entries that follow.
# Test system: Sindbis virus TE/5'2J-GFP
# measurement-protocol: percent infected (GFP+ in RFP+ ISG-expressing cells); higher = more infection (less antiviral activity)
# condition-summary: experiment: confirmatory screen 2; BHK/HA-Zeo (control)
readout-type: percent infected

1) MDAPHSKAALDSINELPENILLELFTHVPARQLLLNCRLVCSLWRDLIDLMTLWKRKCLREGFITKDWDQPVADWKIFYFLRSLHRNLLRNPCAEEDMFAWQIDFNGGDRWKVESLPGAHGTDFPDPKVKKYFVTSYEMCLKSQLVDLVAEGYWEELLDTFRPDIVVKDWFAARADCGCTYQLKVQLASADYFVLASFEPPPVTIQQWNNATWTEVSYTFSDYPRGVRYILFQHGGRDTQYWAGWYGPRVTNSSIVVSPKMTRNQASSEAQPGQKHGQEEAAQSPYRAVVQIF [FBXO6]
94.1%
2) MALLDVCGAPRGQRPESALPVAGSGRRSDPGHYSFSMRSPELALPRGMQPTEFFQSLGGDGERNVQIEMAHGTTTLAFKFQHGVIAAVDSRASAGSYISALRVNKVIEINPYLLGTMSGCAADCQYWERLLAKECRLYYLRNGERISVSAASKLLSNMMCQYRGMGLSMGSMICGWDKKGPGLYYVDEHGTRLSGNMFSTGSGNTYAYGVMDSGYRPNLSPEEAYDLGRRAIAYATHRDSYSGGVVNMYHMKEDGWVKVESTDVSDLLHQYREANQ [PSMB8]
95.3%

----------
# System: Sindbis virus TE/5'2J-GFP
# measurement-protocol: percent infected (GFP+ in RFP+ ISG-expressing cells); higher = more infection (less antiviral activity)
# condition-summary: experiment: confirmatory screen 2; BHK/HA-Zeo (control)
readout-type: percent infected (%)

1. MEQHFLGCVKRAWDSAEVAPEPQPPPIVSSEDRGPWPLPLYPVLGEYSLDSCDLGLLSSPCWRLPGVYWQNGLSPGVQSTLEPSTAKPTEFSWPGTQKQQEAPVEEVGQAEEPDRLRLQQLPWSSPLHPWDRQQDTEVCDSGCLLERRHPPALQPWRHLPGFSDCLEWILRVGFAAFSVLWACCSRICGAKQP [C5orf39]
93.7
2. MLQRGLWPWRTRLLPTPGTWRPARPWPLPPPPQVLRVKLCGNVKYYQSHHYSTVVPPDEITVIYRHGLPLVTLTLPSRKERCQFVVKPMLSTVGSFLQDLQNEDKGIKTAAIFTADGNMISASTLMDILLMNDFKLVINKIAYDVQCPKREKPSNEHTAEMEHMKSLVHRLFTILHLEESQKKREHHLLEKIDHLKEQLQPLEQVKAGIEAHSEAKTSGLLWAGLALLSIQGGALAWLTWWVYSWDIMEPVTYFITFANSMVFFAYFIVTRQDYTYSAVKSRQFLQFFHKKSKQQHFDVQQYNKLKEDLAKAKESLKQARHSLCLQMQVEELNEKN [CCDC109B]
97.3
3. MSIMDHSPTTGVVTVIVILIAIAALGALILGCWCYLRLQRISQSEDEESIVGDGETKEPFLLVQYSAKGPCVERKAKLMTPNGPEVHG [SNN]
96.2

----------
# Tested on: Sindbis virus TE/5'2J-GFP;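 note: Interferon-defective BHK-21 derivatives, ZAP line overexpressing the rat ZAP N-terminal zinc finger domain fused to Zeocin resistance, GFP scored within live singlet TagRFP+ cells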
# measurement-protocol: percent infected (GFP+ in RFP+ ISG-expressing cells); higher = more infection (less antiviral activity)
# condition-summary: experiment: confirmatory screen 2; BHK/HA-Zeo (control)
Parameter: percent infected. Scope: all listed entries.
readout-type: percent infected (%)

1. MERISAFFSSIWDTILTKHQEGIYNTICLGVLLGLPLLVIITLLFICCHCCWSPPGKRGQQPEKNKKKKKKKKKKDEEDLWISAQPKLLQMEKRPSLPV [KIAA0040]
96.7
2. MASGRARCTRKLRNWVVEQVESGQFPGVCWDDTAKTMFRIPWKHAGKQDFREDQDAAFFKAWAIFKGKYKEGDTGGPAVWKTRLRCALNKSSEFKEVPERGRMDVAEPYKVYQLLPPGIVSGQPGTQKVPSKRQHSSVSSERKEEEDAMQNCTLSPSVLQDSLNNEEEGASGGAVHSDIGSSSSSSSPEPQEVTDTTEAPFQGDQRSLEFLLPPEPDYSLLLTFIYNGRVVGEAQVQSLDCRLVAEPSGSESSMEQVLFPKPGPLEPTQRLLSQLERGILVASNPRGLFVQRLCPIPISWNAPQAPPGPGPHLLPSNECVELFRTAYFCRDLVRYFQGLGPPPKFQVTLNFWEESHGSSHTPQNLITVKMEQAFARYLLEQTPEQQAAILSLV [IRF9]
95.8
3. MTLRCLEPSGNGGEGTRSQWGTAGSAEEPSPQAARLAKALRELGQTGWYWGSMTVNEAKEKLKEAPEGTFLIRDSSHSDYLLTISVKTSAGPTNLRIEYQDGKFRLDSIICVKSKLKQFDSVVHLIDYYVQMCKDKRTGPEAPRNGTVHLYLTKPLYTSAPSLQHLCRLTINKCTGAIWGLPLPTRLKDYLEEYKFQV [SOCS2]
95.5
4. MHLCGGNGLLTQTDPKEQQRQLKKQKNRAAAQRSRQKHTDKADALHQQHESLEKDNLALRKEIQSLQAELAWWSRTLHVHERLCPMDCASCSAPGLLGCWDQAEGLLGPGPQGQHGCREQLELFQTPGSCYPAQPLSPGPQPHDSPSLLQCPLPSLSLGPAVVAEPPVQLSPSPLLFASHTGSSLQGSSSKLSALQPSLTAQTAPPQPLELEHPTRGKLGSSPDNPSSALGLARLQSREHKPALSAATWQGLVVDPSPHPLLAFPLLSSAQVHF [BATF2]
95.8
5. MLTELEKALNSIIDVYHKYSLIKGNFHAVYRDDLKKLLETECPQYIRKKGADVWFKELDINTDGAVNFQEFLILVIKMGVAAHKKSHEESHKE [S100A8]
91.3
6. MTLNNVTMRQGTVGMQPQQQRWSIPADGRHLMVQKEPHQYSHRNRHSATPEDHCRRSWSSDSTDSVISSESGNTYYRVVLIGEQGVGKSTLANIFAGVHDSMDSDCEVLGEDTYERTLMVDGESATIILLDMWENKGENEWLHDHCMQVGDAYLIVYSITDRASFEKASELRIQLRRARQTEDIPIILVGNKSDLVRCREVSVSEGRACAVVFDCKFIETSAAVQHNVKELFEGIVRQVRLRRDSKEKNERRLAYQKRKESMPRKARRFWGKIVAKNNKNMAFKLKSKSCHDLSVL [GEM]
94.2
7. MKEDCLPSSHVPISDSKSIQKSELLGLLKTYNCYHEGKSFQLRHREEEGTLIIEGLLNIAWGLRRPIRLQMQDDREQVHLPSTSWMPRRPSCPLKEPSPQNGNITAQGPSIQPVHKAESSTDSSGPLEEAEEAPQLMRTKSDASCMSQRRPKCRAPGEAQRIRRHRFSINGHFYNHKTSVFTPAYGSVTNVRVNSTMTTLQVLTLLLNKFRVEDGPSEFALYIVHESGERTKLKDCEYPLISRILHGPCEKIARIFLMEADLGVEVPHEVAQYIKFEMPVLDSFVEKLKEEEEREIIKLTMKFQALRLTMLQRLEQLVEAK [RASSF4]
94.7
8. MFAKGKGSAVPSDGQAREKLALYVYEYLLHVGAQKSAQTFLSEIRWEKNITLGEPPGFLHSWWCVFWDLYCAAPERRDTCEHSSEAKAFHDYSAAAAPSPVLGNIPPNDGMPGGPIPPGFFQGPPGSQPSPHAQPPPHNPSSMMGPHSQPFMSPRYAGGPRPPIRMGNQPPGGVPGTQPLLPNSMDPTRQQGHPNMGGSMQRMNPPRGMGPMGPGPQNYGSGMRPPPNSLGPAMPGINMGPGAGRPWPNPNSANSIPYSSSSPGTYVGPPGGGGPPGTPIMPSPADSTNSSDNIYTMINPVPPGGSRSNFPMGPGSDGPMGGMGGMEPHHMNGSLGSGDIDGLPKNSPNNISGISNPPGTPRDDGELGGNFLHSFQNDNYSPSMTMSV [SSBP3]
94.4
9. MKVSAAALAVILIATALCAPASASPYSSDTTPCCFAYIARPLPRAHIKEYFYTSGKCSNPAVVFVTRKNRQVCANPEKKWVREYINSLEMS [CCL5]
94.8
10. MQEGELAISPISPVAAMPPLGTHVQARCEAQINLLGEGGICKLPGRLRIQPALWSREDVLHWLRWAEQEYSLPCTAEHGFEMNGRALCILTKDDFRHRAPSSGDVLYELLQYIKTQRRALVCGPFFGGIFRLKTPTQHSPVPPEEVTGPSQMDTRRGHLLQPPDPGLTSNFGHLDDPGLARWTPGKEESLNLCHCAELGCRTQGVCSFPAMPQAPIDGRIADCRLLWDYVYQLLLDTRYEPYIKWEDKDAKIFRVVDPNGLARLWGNHKNRVNMTYEKMSRALRHYYKLNIIKKEPGQKLLFRFLKTPGKMVQDKHSHLEPLESQEQDRIEFKDKRPEISP [ETV7]
95.8
11. MLRAGAPTGDLPRAGEVHTGTTIMAVEFDGGVVMGSDSRVSAGEAVVNRVFDKLSPLHERIYCALSGSAADAQAVADMAAYQLELHGIELEEPPLVLAAANVVRNISYKYREDLSAHLMVAGWDQREGGQVYGTLGGMLTRQPFAIGGSGSTFIYGYVDAAYKPGMSPEECRRFTTDAIALAMSRDGSSGGVIYLVTITAAGVDHRVILGNELPKFYDE [PSMB9]
90.2
